System: 885724-159-R-J1-PDC KRAS PDC multicell spheroid viability
Assay: Anticancer human tumor 885724-159-R-J1-PDC patient-derived pancreatic adenocarcinoma cell line growth inhibition [KRAS2]
Conditions: second compound 0.1 µM; first compound 0.00316 µM; active compounds read low
# label = TRUE if viability, T/C < 90% else FALSE

For orientation, consider the following solved cases.
INSERT INTO measurements (compound, discrete_label) VALUES
  ('CCN1CCN(Cc2ccc(Nc3ncc(F)c(-c4cc(F)c5nc(C)n(C(C)C)c5c4)n3)nc2)CC1 + CNCc1ccccc1-c1csc(C(C)Nc2nc(C)nc3cc(OC)c(OC)cc23)c1', 'FALSE'),
  ('Cn1ncnc1[C@H]1c2n[nH]c(=O)c3cc(F)cc(c23)N[C@@H]1c1ccc(F)cc1 + CC1OCC2(CCN(c3cnc(Sc4ccnc(N)c4Cl)c(N)n3)CC2)C1N', 'TRUE'),
  ('CC(C)n1nc(-c2ccc3oc(N)nc3c2)c2c(N)ncnc21 + CC1OCC2(CCN(c3cnc(Sc4ccnc(N)c4Cl)c(N)n3)CC2)C1N', 'TRUE');

Given CC(C)n1nc(-c2ccc3oc(N)nc3c2)c2c(N)ncnc21 + C=CC(=O)N1CCN(c2nc(OCC3CCCN3C)nc3c2CCN(c2cccc4cccc(C)c24)C3)CC1CC#N , is recorded viability, T/C strictly lower than 90%? TRUE

# TODO verify viability, T/C < 90% strictly for this compound: CN(C)C/C=C/C(=O)Nc1cc2c(Nc3ccc(F)c(Cl)c3)ncnc2cc1O[C@H]1CCOC1 + C=CC(=O)N1CCN(c2nc(OCC3CCCN3C)nc3c2CCN(c2cccc4cccc(C)c24)C3)CC1CC#N FALSE

====

Tested on: 885724-159-R-J1-PDC KRAS PDC multicell spheroid viability
Experiment: Anticancer human tumor 885724-159-R-J1-PDC cell line growth inhibition [KRAS2];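 note: spheroids exposed to agents for 7 days before readout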
Conditions: second compound 3.16 µM; first compound 1 µM; active compounds read low
Observation Type: viability, T/C

Past entries and their recorded results:
INSERT INTO assay_data (compound, result) VALUES
  ('CCN1CCN(Cc2ccc(Nc3ncc(F)c(-c4cc(F)c5nc(C)n(C(C)C)c5c4)n3)nc2)CC1 + COc1cc2nc(C)nc(NC(C)c3cc(N)cc(C(F)(F)F)c3)c2cc1OC1CCOC1', '73.1%'),
  ('CC1(C)CCC(CN2CCN(c3ccc(C(=O)NS(=O)(=O)c4ccc(NCC5CCOCC5)c([N+](=O)[O-])c4)c(Oc4cnc5[nH]ccc5c4)c3)CC2)=C(c2ccc(Cl)cc2)C1 + C=CC(=O)N1CCN(c2nc(OCC3CCCN3C)nc3c2CCN(c2cccc4cccc(C)c24)C3)CC1CC#N', '35.8%'),
  ('COc1cc(Nc2ncc3c(n2)-c2ccc(Cl)cc2C(c2c(F)cccc2OC)=NC3)ccc1C(=O)O + C=CC(=O)N1CCN(c2nc(=O)n(-c3c(C)ccnc3C(C)C)c3nc(-c4c(O)cccc4F)c(F)cc23)C(C)C1', '90.6%');

# next compound below
Fill in viability, T/C for record CC1(C)CCC(CN2CCN(c3ccc(C(=O)NS(=O)(=O)c4ccc(NCC5CCOCC5)c([N+](=O)[O-])c4)c(Oc4cnc5[nH]ccc5c4)c3)CC2)=C(c2ccc(Cl)cc2)C1 + COc1cc2nc(C)nc(NC(C)c3cc(N)cc(C(F)(F)F)c3)c2cc1OC1CCOC1 71.7%

These data points were gathered from PubChem BioAssay AID1963861.
